All values here come from ChEMBL document CHEMBL3885881.

# Organism: Rattus norvegicus
# assay name: DrugMatrix - Regimen: Daily Repeat
# Format: toxicity, organism-based, Sprague-Dawley
# Parameters: regimen Daily Repeat, gender Male, age 6-8 weeks
# condition parameters: in vivo, po, 1500 mg/kg, 120 h, tissue Blood, route oral GAVAGE, dose level High, time 5 day, vehicle .5 % CMC
Hi there, I'd appreciate the recorded MEAN CORPUSCULAR HEMOGLOBIN for every entry that follows.
Kindly provide the numeric value in pg only, without the unit symbol.

Field MEAN CORPUSCULAR HEMOGLOBIN (entry CCOC(=O)[C@H](CCc1ccccc1)N[C@@H](C)C(=O)N1CCC[C@H]1C(=O)O ) reads 24.23

The compound identified as CC(C)(Sc1cc(C(C)(C)C)c(O)c(C(C)(C)C)c1)Sc1cc(C(C)(C)C)c(O)c(C(C)(C)C)c1 [PROBUCOL] registered its MEAN CORPUSCULAR HEMOGLOBIN at 23.63

Data point: C[C@@H](O)[C@H]1C(=O)N2C(C(=O)O)=C(S[C@@H]3CN[C@H](C(=O)N(C)C)C3)[C@H](C)[C@H]12 [MEROPENEM] ; MEAN CORPUSCULAR HEMOGLOBIN = 24.07

Recorded result, Nc1nc2c(c(=O)[nH]1)N(C=O)C(CNc1ccc(C(=O)N[C@@H](CCC(=O)O)C(=O)O)cc1)CN2 (stereo not given in full) [LEUCOVORIN] , MEAN CORPUSCULAR HEMOGLOBIN: 24.8

MEAN CORPUSCULAR HEMOGLOBIN recorded for this compound, O=c1cc(-c2ccccc2)oc2ccc3ccccc3c12 [BETA-NAPHTHOFLAVONE] , is 19.63
